- Tested System: T1, GST-ENIGMA PDZ domain 1 (Homo sapiens (Human)), Q9NR12
- T1 chain: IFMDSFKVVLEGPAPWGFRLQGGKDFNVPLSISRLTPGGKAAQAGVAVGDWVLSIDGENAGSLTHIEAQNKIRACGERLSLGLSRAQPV
- Measurement Description: G' assay; further: key of the grades not given here
Readout Kind: Classification (A450 class)
Note: unit A450 class is implicit; provide only the numeric part.

[Q] Quick check: Classification of YSATYSELEDPGEMSPPIDL (modifications not checked) [FceRlb] ?
[A] 2

[Q] Likewise for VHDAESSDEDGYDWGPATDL (modifications not checked) [zona occludens 3 (ZO-3) PL peptide] ?
[A] 1

[Q] # repeat for EVIGYIEKPGVETLEDSVF (modifications not checked) [CDW125 (modified)]
[A] 1

[Q] Now give it for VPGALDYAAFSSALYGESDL (modifications not checked) [a-actinin 2] too.
[A] 5

[Q] Follow-up entry: GGGGGSGGGGGSGIESVKI (modifications not checked) [GLUR2 (glutamate receptor 2-modified)]
[A] 1
